All figures here come from patent US20250236642A1.

target: HLA-A*02:06 molecule; test: flow cytometry, RA2.6 cells
Returns condition met if the recorded -log Kd value is greater than or equal to -5, and condition not met otherwise.

A selection of reference data follows.
{"binder": "CMIVHQGTI [peptide of SEQ ID NO: 36]", "class.label": "condition met"}
{"binder": "LTITRKSFI [peptide of SEQ ID NO: 45]", "class.label": "condition met"}
{"binder": "LLEEHGATL [peptide of SEQ ID NO: 41]", "class.label": "condition not met"}
{"binder": "SSFEFFEEA [peptide of SEQ ID NO: 37]", "class.label": "condition not met"}
{"binder": "CIDEHQWQL [peptide of SEQ ID NO: 28]", "class.label": "condition not met"}
{"binder": "EAIDGYITL [peptide of SEQ ID NO: 47]", "class.label": "condition met"}
{"binder": "AQAPPTAQL [peptide of SEQ ID NO: 5]", "class.label": "condition not met"}

Here is another binder to look at.
Hello, I need to know if LLITRKSFI [peptide of SEQ ID NO: 16] has measured -log Kd value not below -5. Thanks!
condition met
